TEST TARGET: Eukaryotic initiation factor 4A-I (Homo sapiens)
Sequence (P60842 whole entry): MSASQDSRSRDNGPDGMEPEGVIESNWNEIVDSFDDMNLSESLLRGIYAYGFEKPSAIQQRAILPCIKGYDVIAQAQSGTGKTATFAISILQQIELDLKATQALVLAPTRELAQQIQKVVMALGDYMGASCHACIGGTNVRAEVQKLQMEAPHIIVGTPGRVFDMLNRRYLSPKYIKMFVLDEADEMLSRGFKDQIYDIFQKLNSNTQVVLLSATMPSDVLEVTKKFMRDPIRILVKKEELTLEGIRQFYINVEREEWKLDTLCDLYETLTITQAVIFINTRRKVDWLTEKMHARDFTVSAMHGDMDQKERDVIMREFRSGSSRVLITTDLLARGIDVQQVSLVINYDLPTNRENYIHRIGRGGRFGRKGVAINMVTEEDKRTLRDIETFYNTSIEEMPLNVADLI
EXPERIMENT SUMMARY: Inhibition of eIF4G-induced full-length human recombinant His6-tagged eIF4A1 RNA dependent ATPase activity expressed in Escherichia coli BL21(DE3) using single stranded poly(U) RNA as substrate after 40 mins by ADP-Glo luminescence assay
pIC50: −log10 of the molar value.
ASSAY READOUT: pIC50

given_smiles=Cc1c(C(=O)N2CCN(C(=O)c3ccc(Br)cc3)[C@@H](c3ccc(Cl)cc3)C2)cnn1-c1cccc(C#N)c1 observed_measurement="< 4.00"

* * *

TEST TARGET: UniProtKB P38919
Sequence (P38919 whole entry): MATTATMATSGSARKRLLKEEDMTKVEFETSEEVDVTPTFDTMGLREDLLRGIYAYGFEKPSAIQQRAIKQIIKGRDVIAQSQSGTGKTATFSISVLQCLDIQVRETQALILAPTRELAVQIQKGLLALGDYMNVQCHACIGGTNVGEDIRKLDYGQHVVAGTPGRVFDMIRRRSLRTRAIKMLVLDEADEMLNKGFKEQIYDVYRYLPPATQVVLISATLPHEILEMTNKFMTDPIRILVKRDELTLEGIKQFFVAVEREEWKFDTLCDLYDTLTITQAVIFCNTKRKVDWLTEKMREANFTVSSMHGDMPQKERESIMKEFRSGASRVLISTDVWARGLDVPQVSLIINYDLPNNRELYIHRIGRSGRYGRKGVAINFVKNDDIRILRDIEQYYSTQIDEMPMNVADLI
EXPERIMENT SUMMARY: Inhibition of MLN51-induced full-length human recombinant His6-tagged eIF4A3 RNA dependent ATPase activity expressed in Escherichia coli BL21(DE3) using single stranded poly(U) RNA as substrate after 30 mins by ADP-Glo luminescence assay
pIC50: −log10 of the molar value.
ASSAY READOUT: pIC50

compound="O=C(c1cnc(-c2ccccc2)o1)N1CCCN(C(=O)c2ccc(Cl)cc2)C(c2ccc(Cl)cc2)C1 (centres undefined)" test_target="UniProtKB P38919" assay_readout=pIC50 observed_measurement="< 4.00"
compound="O=C(c1cnc(-c2ccccc2)o1)N1CCN(C(=O)c2cccc(Cl)c2)C(c2ccc(Cl)cc2)C1 (centres undefined)" test_target="UniProtKB P38919" assay_readout=pIC50 observed_measurement="< 4.00"
compound=Cc1c(C(=O)N2CCN(C(=O)c3ccc(Br)cc3)[C@H](c3ccc(Cl)cc3)C2)cnn1-c1cccc(C#N)c1 test_target="UniProtKB P38919" assay_readout=pIC50 observed_measurement="< 4.00"
compound=Cc1c(C(=O)N2CCN(C(=O)c3ccc(Br)cc3)[C@@H](c3ccc(Cl)cc3)C2)cnn1-c1cccc(C#N)c1 test_target="UniProtKB P38919" assay_readout=pIC50 observed_measurement=6.59
